Kindly state self-cleavage kobs at 2500 uM GlcN6P for each of the entries shown.
B1: glmS ribozyme (parent)
chain: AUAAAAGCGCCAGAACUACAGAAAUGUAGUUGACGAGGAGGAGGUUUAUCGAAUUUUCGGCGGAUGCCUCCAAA

Variants of: B1
protocol-summary: self-cleavage kobs at 2500 uM GlcN6P; higher = faster cleavage; RNA array
conditions-used: with glucosamine-6-phosphate
This sample holds only a part of the variants without activity.

- mutation-string: "G37U G40A"
  self-cleavage kobs at 2500 uM GlcN6P: "< 1e-05 s⁻¹"
- mutation-string: "A33U G37C C70G"
  self-cleavage kobs at 2500 uM GlcN6P: "< 1e-05 s⁻¹"
- mutation-string: "C8G C10U A48U"
  self-cleavage kobs at 2500 uM GlcN6P: "< 1e-05 s⁻¹"
- mutation-string: "A53U U56C"
  self-cleavage kobs at 2500 uM GlcN6P: "0.00118 s⁻¹"
- mutation-string: "C34U C67A"
  self-cleavage kobs at 2500 uM GlcN6P: "< 1e-05 s⁻¹"

Below is a list of variants. For each, state its recorded self-cleavage kobs at 2500 uM GlcN6P.
1. U47C C58A C68U
2. G32U A48U G51C
3. G32U C50U
4. G29U G32C
5. G26U G32C G35U G38U G63C
6. C11U C34G A52U
7. U45G C50U U56G G59C

Result ::
1. 3.93e-05 s⁻¹
2. < 1e-05 s⁻¹
3. < 1e-05 s⁻¹
4. 5.78e-05 s⁻¹
5. < 1e-05 s⁻¹
6. < 1e-05 s⁻¹
7. < 1e-05 s⁻¹
